System: BCRP
Assay: Therapeutic index, ratio of GI50 for MDCK cells to IC50 for human BCRP expressed in MDCK2 cells
Details: dog, mdck2
Observed Property: selectivity ratio
Reply: number alone, nothing else.

- Sample Smiles: "Oc1cccc(Nc2nc(-c3ccccc3)nc3ccccc23)c1"
  Recorded Measurement: 340

Q: Given COc1ccc(-c2nc(Nc3cccc(O)c3)c3ccccc3n2)cc1OC , state its recorded selectivity ratio.
Ans: 33

###

Target: Broad substrate specificity ATP-binding cassette transporter ABCG2 (Homo sapiens)
Sequence (Q9UNQ0 whole entry): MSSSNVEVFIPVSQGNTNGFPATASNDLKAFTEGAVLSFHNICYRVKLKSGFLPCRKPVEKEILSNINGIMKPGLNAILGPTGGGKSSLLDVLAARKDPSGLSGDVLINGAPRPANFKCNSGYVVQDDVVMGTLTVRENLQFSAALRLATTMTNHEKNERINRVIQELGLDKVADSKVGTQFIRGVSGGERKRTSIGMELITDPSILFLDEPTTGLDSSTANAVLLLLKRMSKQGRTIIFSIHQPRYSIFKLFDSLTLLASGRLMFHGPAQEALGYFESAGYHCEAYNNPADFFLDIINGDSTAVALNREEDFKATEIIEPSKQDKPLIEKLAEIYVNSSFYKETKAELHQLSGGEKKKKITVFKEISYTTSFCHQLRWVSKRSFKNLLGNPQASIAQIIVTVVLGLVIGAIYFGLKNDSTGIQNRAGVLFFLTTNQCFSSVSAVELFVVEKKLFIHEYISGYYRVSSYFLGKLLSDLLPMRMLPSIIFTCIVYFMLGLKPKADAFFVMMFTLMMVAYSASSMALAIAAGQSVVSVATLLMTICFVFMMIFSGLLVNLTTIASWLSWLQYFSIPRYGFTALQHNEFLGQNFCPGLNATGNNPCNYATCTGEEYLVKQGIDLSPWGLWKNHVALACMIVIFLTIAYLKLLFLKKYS
Experiment: Inhibition of human BCRP expressed in MDCK2 cells assessed as Hoechst 33342 accumulation treated 30 mins before Hoechst 33342 addition measured up to 120 mins by fluorescence assay
Type: cell-based, MDCK-II
pIC50: −log10 of the molar value.
Observed Property: pIC50

- Sample Smiles: "COc1cc2ncnc(Nc3cccc([N+](=O)[O-])c3)c2cc1OC"
  Recorded Measurement: 6.09
- Sample Smiles: "Oc1cccc(Nc2nc(-c3ccccc3)nc3ccccc23)c1"
  Recorded Measurement: 6.82
- Sample Smiles: "COc1ccc(-c2nc(Nc3ccccc3O)c3ccccc3n2)cc1OC"
  Recorded Measurement: 6.59
- Sample Smiles: "COc1cc2ncnc(Nc3ccc([N+](=O)[O-])cc3)c2cc1OC"
  Recorded Measurement: 5.53
- Sample Smiles: "FC(F)(F)c1cccc(Nc2ncnc3ccccc23)c1"
  Recorded Measurement: 6.03
- Sample Smiles: "COc1cc2ncnc(Nc3cccc(C#N)c3)c2cc1OC"
  Recorded Measurement: 5.97
- Sample Smiles: "COc1ccc(Nc2nc(Nc3ccc(OC)c(OC)c3)c3cc(OC)c(OC)cc3n2)cc1OC"
  Recorded Measurement: 5.76
- Sample Smiles: "N#Cc1cccc(Nc2ncnc3ccccc23)c1"
  Recorded Measurement: 5.93

I. COc1cc2ncnc(Nc3cccc(C(F)(F)F)c3)c2cc1OC
II. COc1cc2ncnc(Nc3ccccc3[N+](=O)[O-])c2cc1OC
Q: # return whichever of I and II has the smaller pIC50 Label of pick, please.
Ans: II
(II: 5.42, I: 5.62)

1. COc1ccc(-c2nc(Nc3ccccc3)c3ccccc3n2)cc1OC
2. COc1cc2nc(Nc3cccc(C(F)(F)F)c3)nc(Nc3cccc(C(F)(F)F)c3)c2cc1OC
Q: # return whichever of 1 and 2 has the smaller pIC50 Label of pick, please.
Ans: 1

###

Assay: Cytotoxicity against MDCK cells after 72 hrs by MTT assay
Type: cell-based, Canis lupus familiaris
Conditions: dog
Entries and their GI50 at 72 h
All answers are understood in µM, so give the number only.

Examples with their reported GI50 at 72 h follow.
- Sample Smiles: "Oc1cccc(Nc2nc(-c3ccccc3)nc3ccccc23)c1"
  Observed Property: "GI50 at 72 h"
  Recorded Measurement: 51.1
- Sample Smiles: "COc1ccc(-c2nc(Nc3cccc(O)c3)c3ccccc3n2)cc1OC"
  Observed Property: "GI50 at 72 h"
  Recorded Measurement: 4.61

Please look at the following molecule next.
Q: Given COc1cc2ncnc(Nc3ccc(F)c(Cl)c3)c2cc1OCCCN1CCOCC1 , state its recorded GI50 at 72 h.
Ans: 1.45

###

Entries and their selectivity ratio
Tested on: BCRP
Test: Therapeutic index, ratio of GI50 for MDCK cells to IC50 for human BCRP expressed in MDCK2 cells
Settings: dog
Reply: number alone, nothing else.

- Sample Smiles: "COc1cc2ncnc(Nc3cccc([N+](=O)[O-])c3)c2cc1OC"
  selectivity ratio: 1.85

Q: Given O=[N+]([O-])c1cccc(Nc2ncnc3ccccc23)c1 , state its recorded selectivity ratio.
Ans: 16

This collection of values is drawn from ChEMBL document CHEMBL3091323.
